Source of measurements: ChEMBL document CHEMBL1201862

System: NCI-H226
Test: NCI tumour cell line growth inhibition, 48 h
Activity calls are given as the source filed them. Cut-off read from the data, not from the text of the source: active = GI50 up to about 1.1 µM and inactive = higher.
Hi! Could you answer with just one of these? yes (1) for active, no (0) for inactive

Example results:
O=C1NC(=O)C(C(c2ccc([N+](=O)[O-])cc2)C2C(=O)NC(=O)NC2=O)C(=O)N1    no (0)
CCC(C)(C)c1ccc(Oc2cccc(C(=O)O)c2)cc1    no (0)
COc1ccc(-c2cc(O)c3ccc(F)cc3n2)cc1    no (0)
CCc1nc(N)nc(N)c1-c1ccc2nn(-c3ccccc3)[n+]([O-])c2c1    no (0)
C[N+](C)(C)/N=C\c1ccc(O)c(O)c1    no (0)
NC(=O)OCC(COc1ccc(Cl)cc1)OC(=O)c1ccccc1Cl (stereo not drawn)    no (0)
Nc1nc(N)c2cc(CNc3ccc(C(=O)NC(CC(=O)O)C(=O)O)c(Cl)c3)ccc2n1 (stereo not drawn)    no (0)
OCCn1cnc2c(SCc3ccccc3)ncnc21    no (0)
CCOP(=O)(OCC)C(F)(F)c1ccc(CC(NC(=O)OC(C)(C)C)C(=O)O)cc1 (stereo not drawn)    no (0)
COc1cc(C2=C(C)[C@@H]3CN(CC=C3c3ccc(Cl)cc3)C2)c(S(=O)(=O)O)cc1OC    no (0)

Shift focus to the following entry.
// query Which outcome did this test record for the compound CN(C)Cc1cc(C(=O)/C=C/c2ccc(Br)cc2)cc(CN(C)C)c1O ?
// result no (0)

* * *

Test system: HOP-62
Test: NCI tumour cell line growth inhibition, 48 h
Active and inactive are the calls of the source. Rule as the data show it: active = GI50 up to about 1.1 µM and inactive = higher.
GI50 values for the molecules below.

For orientation, consider the following solved cases.
CC[C@H]1C=CCC[C@@]2(C[C@@H]3CC[C@H]4[C@@H](C(=O)OCCCCCCCCCCCCCCCC(=O)N(CCCNC(C)=O)C[C@H](CCNC(C)=O)OC(C)=O)[C@@]5(CCC[C@@H](C)O5)NC(=[N+]34)N2)O1    2 µM (inactive)
CCCCCCCCNC(=O)C1=C(C)NC(C)=C(C(=O)NCCCCCCCC)C1    > 100 µM (inactive)

GI50 measured on O=c1c2cc(I)ccc2nc(Sc2ccc([N+](=O)[O-])cc2[N+](=O)[O-])n1Cc1ccccc1 = 2.93 µM (inactive)

GI50 measured on CCCCCCCCCCCCCCCCCCCCCC(=O)Nc1ccn(C2OC(CO)C(O)C2O)c(=O)n1 (centres undefined) = 3.11 µM (inactive)

* * *

Test system: UACC-257
Test: NCI tumour cell line growth inhibition, 48 h
Active and inactive are the calls of the source. Cut-off read from the data, not from the text of the source: active = GI50 up to about 1.1 µM and inactive = higher.
assayMetric: GI50

GI50 measured on O/N=C1/C(=C/c2ccc(Cl)c(Cl)c2)CCCC1C(NO)c1ccc(Cl)c(Cl)c1 (configuration not stated) = 18.7 µM (inactive)

GI50 measured on O=C(C/C(=N/O)c1cc(-c2ccccc2)no1)c1ccccc1 = 79.8 µM (inactive)

GI50 measured on CC(C)SC(=S)Sc1c(Cl)c(Cl)nc(Cl)c1Cl = 3.52 µM (inactive)

GI50 measured on C[N+](C)(C)CC(CC(=O)[O-])C1CC1 (configuration not stated) = > 100 µM (inactive)

GI50 measured on C=C(C)C1Cc2c(cc(O)c3c(=O)c4c(oc23)C(O)Oc2cc(OC)c(OC)cc2-4)O1 (configuration not stated) = > 10 µM (inactive)

GI50 measured on Cc1nc(-n2nc(-c3ccccc3)cc2-c2ccccc2)sc1C(=O)/C=C/c1ccc([N+](=O)[O-])cc1 = 34.5 µM (inactive)

GI50 measured on O=C(O)c1c[nH]c2c(Sc3ccccc3)nccc2c1=O = > 100 µM (inactive)

* * *

Test system: SK-OV-3
Test: NCI tumour cell line growth inhibition, 48 h
Active and inactive are the calls of the source. No stated cut-off is given here; in the data, active = GI50 up to about 1.1 µM and inactive = higher.
Hi! Could you answer with just one of these? t (active), f (inactive)

Example results:
CCc1nc(N)nc(N)c1-c1ccc2nn(-c3ccccc3)[n+]([O-])c2c1    f
COc1ccc(/C=C2/C(C)=NN(c3cccc(Cl)c3)/C2=N/c2nc3ccccc3s2)cc1    f

// query Which outcome did this test record for the compound Cc1nc2ccc(Br)cc2c(=O)n1-c1ccc(N)cc1 ?
// result f

// query Which outcome did this test record for the compound CCCCCCc1ccc(CCCCCCCC(=O)O)o1 ?
// result f

// query Which outcome did this test record for the compound NC(=O)c1cc2ccc(O)cc2o/c1=N/c1ccccc1 ?
// result f

// query Which outcome did this test record for the compound COc1ccc(C(CC2(c3ccc(OC)cc3)SCCCS2)NC(C)=O)cc1 (stereo unspecified) ?
// result f

// query Which outcome did this test record for the compound c1ccc(C(OCCN2CC3CCC(C2)N3)c2ccccc2)cc1 ?
// result f

// query Which outcome did this test record for the compound N#Cc1c(N)oc(-c2cccc([N+](=O)[O-])c2)c1C#N ?
// result f

// query Which outcome did this test record for the compound C/C(=N\N)C(CN1CCOCC1)C(c1ccccc1)c1c(O)c2ccccc2oc1=O (stereo unspecified) ?
// result f

// query Which outcome did this test record for the compound Cc1c(C(=O)CC(=O)C(=O)Nc2c(C(C)C)cccc2C(C)C)[n+]([O-])c2ccccc2[n+]1[O-] ?
// result f

// query Which outcome did this test record for the compound O=C1CCCC2COc3ccc(O)c1c32 (stereo unspecified) ?
// result f

// query Which outcome did this test record for the compound C=C(C)[C@H]1C[C@@H]2O[C@@](O)(/C(C)=C\C(=O)/C=C(/C)C[C@H]3OC(=O)[C@@]24O[C@H]34)[C@@H]1O ?
// result f

* * *

GI50 values for the molecules below.
Test system: OVCAR-5
Assay: NCI tumour cell line growth inhibition, 48 h
Calls of active or inactive are those of the source. No stated cut-off is given here; in the data, active = GI50 up to about 1.1 µM and inactive = higher.

For orientation, consider the following solved cases.
O=C/C(=C(/Br)I)c1ccccc1    9.86 µM (inactive)
C/C(=N/N)c1ccc2[nH]c3c(C)cc([N+](=O)[O-])c(C)c3c2c1    > 10 µM (inactive)
N#C/C(=C\c1c(O)cc(O)cc1O)C(N)=O    > 100 µM (inactive)

GI50 measured on CC(C)(C)NNc1c([N+](=O)[O-])cnn(-c2ccccc2)c1=O = 8.81 µM (inactive)

GI50 measured on N#Cc1nc(COCCOCc2ccccc2)oc1N = > 100 µM (inactive)

GI50 measured on COc1ccc2c(c1)CCN1CCc3cc(OC)c(OC)cc3CC21 (stereo unspecified) = > 100 µM (inactive)

GI50 measured on O=C(c1ccccc1)C1N=NCC1c1ccc([N+](=O)[O-])cc1 (stereo unspecified) = > 100 µM (inactive)

GI50 measured on O=C1c2cc(Cl)ccc2N=C(NC2CCCC2)C2CSCN12 (stereo unspecified) = > 100 µM (inactive)

GI50 measured on Clc1cccc2c1OCC1C(c3ccccc3)=NN(c3ccccc3)C21 (stereo unspecified) = > 100 µM (inactive)

GI50 measured on O=c1c(-c2ccccc2)nnc2n(Cc3ccccc3)c3ccccc3n12 = > 100 µM (inactive)

GI50 measured on COc1cc2c(cc1OC(=O)CC(C)O)C1C(OC2=O)C(OC(C)=O)C=C2CCN(C)[C@H]21 (stereo partly specified) = > 100 µM (inactive)

* * *

Tested on: UO-31
Test: NCI tumour cell line growth inhibition, 48 h
Calls of active or inactive are those of the source. Cut-off read from the data, not from the text of the source: active = GI50 up to about 1.1 µM and inactive = higher.
Hi! Could you answer with just one of these? active, inactive

Cc1ccnc(NS(=O)(=O)c2ccc(NC(=O)c3ccc4nc5ccccc5c(Nc5ccc(S(=O)(=O)Nc6nccc(C)n6)cc5)c4c3)cc2)n1    inactive
Nc1nc(N)c2cc(CNc3ccc(C(=O)NC(CC(=O)O)C(=O)O)c(Cl)c3)ccc2n1 (stereo not given)    active
CC1CCc2sc3nc4n(c(=O)c3c2C1)CC(C)S4 (stereo not given)    inactive
CC(C)=CCNc1ncnc2[nH]cnc12    inactive
[O-][S+]1Nc2c(Cl)cc(Cl)c(Cl)c2S1 (stereo not given)    inactive
O=C(CC(=O)c1cccc([N+](=O)[O-])c1)C(=O)Nc1nc([N+](=O)[O-])cs1    inactive

// query Which outcome did this test record for the compound C/C(CC(=O)Nc1cc(C)ccc1C)=N\NC(=O)c1ccncc1 ?
// result inactive

// query Which outcome did this test record for the compound O=C1C(Br)=Cc2c(Cl)sc(Cl)c21 ?
// result inactive

// query Which outcome did this test record for the compound c1ccc(CN2CCC(Nc3ccccc3)(c3nnnn3Cc3ccccc3)CC2)cc1 ?
// result inactive

// query Which outcome did this test record for the compound CCC(C)(C)c1ccc(Oc2cccc(C(=O)O)c2)cc1 ?
// result inactive

* * *

Test system: EKVX
Assay: NCI tumour cell line growth inhibition, 48 h
Activity calls are given as the source filed them. No stated cut-off is given here; in the data, active = GI50 up to about 1.1 µM and inactive = higher.
GI50 values for the compounds below.

For orientation, consider the following solved cases.
C=C(C)[C@@H]1CCC2=C(CC[C@]3(C)[C@@H]([C@@H](CCC=C(C)C)C(=O)O)[C@H](O)C[C@@]23C)[C@@]1(C)CCC(=O)O    44.6 µM (inactive)
N#CCCC1(CCC#N)S(=O)(=O)OCCOS1(=O)=O    > 100 µM (inactive)
COC1C(OC(N)=O)C(O)C(Oc2ccc3c(O)c(NC(=O)c4ccc(O)c(CC=C(C)C)c4)c(=O)oc3c2C)OC1(C)C (centres undefined)    > 100 µM (inactive)

GI50 measured on [O-][S+]1Nc2c(Cl)cc(Cl)c(Cl)c2S1 (centres undefined) = > 100 µM (inactive)
